# SYSTEM TESTED: T1, cyno SIRPα-Fc (cynomolgus)
# T1 construct: a signal peptide may be part of the entry
# ASSAY NAME: BLI Octet, antigen-Fc on biosensor;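 note: antigen captured on the biosensor tip and then immersed in solutions of the test antibodies, which act as the analyte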
Recorded kon, one value per entry.
Expressed in M⁻¹ s⁻¹, but write only the number.

# example entries with known answers
{"columns": ["BINDER", "UNIT ANNOTATION", "kon"],
 "data": [
  ["SIRPAB-7 (antibody, human IgG1, kappa, V domains shown) VH: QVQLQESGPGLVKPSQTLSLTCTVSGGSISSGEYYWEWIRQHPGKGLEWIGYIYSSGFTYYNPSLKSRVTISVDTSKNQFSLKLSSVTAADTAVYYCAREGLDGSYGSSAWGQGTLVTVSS VL: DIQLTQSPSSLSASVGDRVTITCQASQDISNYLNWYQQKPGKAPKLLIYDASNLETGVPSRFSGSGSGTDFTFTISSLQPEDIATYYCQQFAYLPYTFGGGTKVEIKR", "M⁻¹ s⁻¹", "1.19e+06"],
  ["SIRPAB-9 (antibody, human IgG1, kappa, V domains shown) VH: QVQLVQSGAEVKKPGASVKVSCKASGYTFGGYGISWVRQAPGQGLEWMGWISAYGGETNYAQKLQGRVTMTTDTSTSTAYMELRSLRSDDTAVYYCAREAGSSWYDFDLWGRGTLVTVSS VL: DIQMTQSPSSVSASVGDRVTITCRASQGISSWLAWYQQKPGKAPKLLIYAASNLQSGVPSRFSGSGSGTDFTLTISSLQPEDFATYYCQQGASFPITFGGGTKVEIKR", "M⁻¹ s⁻¹", "1.13e+06"]
]}

Moving on to another binder below.
Quick one: kon of SIRPAB-10 (antibody, human IgG1, kappa, V domains shown) VH: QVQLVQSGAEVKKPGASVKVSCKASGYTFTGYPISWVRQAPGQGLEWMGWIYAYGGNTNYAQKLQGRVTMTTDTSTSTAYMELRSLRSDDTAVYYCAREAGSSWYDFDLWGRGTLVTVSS VL: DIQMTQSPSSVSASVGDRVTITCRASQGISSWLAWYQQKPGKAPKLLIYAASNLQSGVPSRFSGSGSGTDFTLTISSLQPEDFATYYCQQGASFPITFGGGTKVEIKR ?
1.4e+06
